target: Myeloid Cell Leukemia 1(Mcl-1) (Homo sapiens, UniProt Q07820)
Sequence (Q07820 whole entry): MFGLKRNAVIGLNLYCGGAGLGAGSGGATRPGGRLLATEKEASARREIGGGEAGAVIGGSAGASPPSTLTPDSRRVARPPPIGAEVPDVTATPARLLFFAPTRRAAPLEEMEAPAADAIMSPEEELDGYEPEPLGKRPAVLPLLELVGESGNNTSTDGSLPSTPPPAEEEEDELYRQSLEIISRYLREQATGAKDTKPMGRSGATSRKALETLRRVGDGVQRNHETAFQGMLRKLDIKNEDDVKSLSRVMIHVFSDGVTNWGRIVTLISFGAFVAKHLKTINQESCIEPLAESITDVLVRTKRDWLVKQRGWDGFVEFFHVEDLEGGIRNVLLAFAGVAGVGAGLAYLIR
pKi: −log10 of the molar value.
Record fulfilled whenever pKi is at 10 or higher; record not fulfilled when lower.

Record excerpt, results attached:
# compound, answerLabel
records = [
    ("C[C@@H]1[C@@H](C)C/C=C(\\F)[C@H](C(=O)N(C)CC2CCOC2)N2CCC[C@H]2CN2C[C@@]3(CCCc4cc(Cl)ccc43)COc3ccc(cc32)C(=O)NS1(=O)=O (single isomer, unassigned) [Compound 56]", "fulfilled"),
    ("C[C@@H]1[C@@H](C)C/C=C(\\F)[C@H](C(=O)N(C)CCCN2CCOCC2)N2CCC[C@H]2CN2C[C@@]3(CCCc4cc(Cl)ccc43)COc3ccc(cc32)C(=O)NS1(=O)=O", "fulfilled"),
    ("CO[C@@H]1CCN(C(=O)[C@H]2/C(F)=C/C[C@H](C)[C@@H](C)S(=O)(=O)NC(=O)c3ccc4c(c3)N(C[C@@H]3CCCN32)C[C@@]2(CCCc3cc(Cl)ccc32)CO4)C1", "fulfilled"),
    ("C[C@@H]1[C@@H](C)C/C=C(\\F)[C@H](C(=O)N(C)Cc2ccn(C)n2)N2CCC[C@H]2CN2C[C@@]3(CCCc4cc(Cl)ccc43)COc3ccc(cc32)C(=O)NS1(=O)=O", "not fulfilled"),
    ("COCCN1CCC(CN(C)C(=O)[C@H]2/C(F)=C/C[C@H](C)[C@@H](C)S(=O)(=O)NC(=O)c3ccc4c(c3)N(C[C@@H]3CCCN32)C[C@@]2(CCCc3cc(Cl)ccc32)CO4)CC1", "fulfilled"),
    ("C[C@@H]1[C@@H](C)C/C=C(\\F)[C@H](C(=O)N(C)Cc2nnn(C)n2)N2CCC[C@H]2CN2C[C@@]3(CCCc4cc(Cl)ccc43)COc3ccc(cc32)C(=O)NS1(=O)=O", "fulfilled"),
    ("COCCOCCN(C)C(=O)[C@H]1/C(F)=C/C[C@H](C)[C@@H](C)S(=O)(=O)NC(=O)c2ccc3c(c2)N(C[C@@H]2CCCN21)C[C@@]1(CCCc2cc(Cl)ccc21)CO3", "fulfilled"),
    ("COCCN(CCN1CCOCC1)C(=O)[C@H]1/C(F)=C/C[C@H](C)[C@@H](C)S(=O)(=O)NC(=O)c2ccc3c(c2)N(C[C@@H]2CCCN21)C[C@@]1(CCCc2cc(Cl)ccc21)CO3", "fulfilled"),
    ("COCCN(CCOC)CCN(C)C(=O)[C@H]1/C(F)=C/C[C@H](C)[C@@H](C)S(=O)(=O)NC(=O)c2ccc3c(c2)N(C[C@@H]2CCCN21)C[C@@]1(CCCc2cc(Cl)ccc21)CO3", "fulfilled"),
    ("C[C@@H]1[C@@H](C)C/C=C(\\F)[C@H](C(=O)N2CCOCC2)N2CC[C@H]2CN2C[C@@]3(CCCc4cc(Cl)ccc43)COc3ccc(cc32)C(=O)NS1(=O)=O", "not fulfilled"),
]

Request: Does pKi meet or surpass 10 for C[C@@H]1[C@@H](C)C/C=C(\F)[C@H](C(=O)N(CCO)CCN2CCOCC2)N2CCC[C@H]2CN2C[C@@]3(CCCc4cc(Cl)ccc43)COc3ccc(cc32)C(=O)NS1(=O)=O ?
Result: fulfilled

Request: Please tell me: is the compound COCCN(CCOC)C(=O)[C@H]1/C(F)=C/C[C@H](C)[C@@H](C)S(=O)(=O)NC(=O)c2ccc3c(c2F)N(C[C@@H]2CCCN21)C[C@@]1(CCCc2cc(Cl)ccc21)CO3 at or over 10 in terms of pKi?
Result: fulfilled

Reference source for all entries: patent US20230219906A1
